Assay: Partition coefficient, log P of the compound
Format: physicochemical
Conditions: octanol/water
Reported Property: logP
Reply briefly: the number, and no unit.

- Input Smiles: "CCN(CC)Cc1cc(Nc2ccnc3cc(Cl)ccc23)ccc1O.Cl"
  Reported Property: "logP"
  Endpoint Value: 4.37
- Input Smiles: "CC(C)(C)NCc1cc(Nc2ccnc3cc(Cl)ccc23)ccc1F"
  Reported Property: "logP"
  Endpoint Value: 4.74

Request: What value of logP has been reported for the following molecule? CC(C)N1CCN(Cc2cc(Nc3ccnc4cc(Cl)ccc34)ccc2Cl)CC1
Result: 5.14

* * *

Test: Oral bioavailability in mouse
Type: ADME, organism-based
Details: in vivo
Measured bioavailability, listed per entry.

Example entries begin here.
- Input Smiles: "CC(C)(C)NCc1cc(Nc2ccnc3cc(Cl)ccc23)ccc1F"
  Endpoint Value: "37%"
- Input Smiles: "CCN(CC)Cc1ccc(Nc2ccnc3cc(Cl)ccc23)cc1O"
  Endpoint Value: "21%"

Request: What value of bioavailability has been reported for the following molecule? CCNCc1ccc(Nc2ccnc3cc(Cl)ccc23)cc1O
Result: 100%
